# composite z-score values compiled below
# Test System: Alpha-bungarotoxin (Bungarus multicinctus) (UniProt P60615)
# Sequence (P60615 whole entry, looked up): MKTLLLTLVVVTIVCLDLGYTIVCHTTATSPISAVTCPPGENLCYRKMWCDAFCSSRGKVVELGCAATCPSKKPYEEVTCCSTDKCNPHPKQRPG
# Test Summary: alpha-bungarotoxin binders on microarray, profiling panel, artefact control for SMM control protein annotation, biochemical, small-molecule microarray, Alexa647 label, 635/667 nm fluorescence (AID 1117)
# Measurement Parameters: alpha-BTX-A647 binding fluorescence, higher = more signal
Measure Name: composite z-score

Compound	Measure Name	Experimental Value
C=CCNC(=O)[C@@H]1[C@H]2C(=O)O[C@H](c3ccccc3)[C@H](c3ccccc3)N2[C@H](c2ccc(O)cc2)[C@@]12C(=O)N(C(=O)OCCOC)c1ccc(C#CCCO)cc12	composite z-score	2.29
COC(=O)[C@@]1(Cc2ccc(OC)cc2)[C@H]2c3cc(C(=O)N4CCCC4)n(Cc4cc(C)n(C)n4)c3C[C@H]2CN1C(=O)c1ccccc1	composite z-score	0.769
COCCOC(=O)N1C(=O)[C@@]2(c3cc(C#CCC(C(=O)OC)C(=O)OC)ccc31)[C@H](c1ccc(O)cc1)N1[C@H](c3ccccc3)[C@H](c3ccccc3)OC(=O)[C@H]1[C@@H]2C(=O)NC[C@H](O)c1ccccc1	composite z-score	0.353
CN1C(=O)C2C=CC(C(O)c3cc(C(F)(F)F)cc(C(F)(F)F)c3)N(Nc3ccccc3)C2C1=O (stereo not drawn)	composite z-score	0.0299
CCOC(=O)C1=C[C@@H](C(C)(C)C)N(S(=O)(=O)c2ccc(C)cc2)[C@H]1c1ccc(C)cc1	composite z-score	1.11
C#C[C@@H](CC)O[Si](C#CCCCC#N)(C(C)C)C(C)C	composite z-score	-0.275
[N-]=[N+]=NCc1ccccc1C[C@@]1(C(=O)N2CCCCC2)N=C(c2ccc(OCCCO)cc2)O[C@@H]1c1ccccc1CN=[N+]=[N-]	composite z-score	1.5
O=c1cccc(-c2ccc(F)cc2)o1	composite z-score	0.241
CO[C@H]1O[C@H](CO)[C@@H](OC(=O)CCc2ccccc2)[C@H](OC(=O)c2cc3ccccc3[nH]2)[C@H]1OC(=O)c1cc2ccccc2[nH]1	composite z-score	0.889
CN1C(=O)C2C=CC(C(O)c3cc(C(F)(F)F)cc(C(F)(F)F)c3)N(NC(=O)OC(C)(C)C)C2C1=O (stereo not drawn)	composite z-score	1.23
[N-]=[N+]=Nc1ccccc1C[C@]1(C(=O)NCc2ccccc2)COC(c2ccc(OCCCO)cc2)=N1	composite z-score	1.04
C=C(/C(=C/C[C@H](OC(=O)c1ccncc1)c1cccc(OCCO)c1)c1cnc2ccccc2c1)C(C)C	composite z-score	3.56
Cc1ccc(N2C(=O)c3ccccc3[C@](C)(C(=O)NCc3ccccc3)[C@@H]2c2ccc(CO)cc2)nc1	composite z-score	-0.3
C=C(C)[C@@H]1CC=C(C(O)C2C=CC3C(=O)N(c4ccccc4)C(=O)C3N2Nc2ccc(C#N)cc2)CC1 (stereo partly drawn)	composite z-score	1.92
O=C(O)[C@H]1C[C@H]2C(=O)N[C@@H](Cc3ccccc3)C(=O)N2[C@H]1c1cccc(OCCO)c1	composite z-score	0.366
C=CCC(OC(C)=O)[C@@H]1[C@@H](N(Cc2ccc(-c3cccc(C(F)(F)F)c3)o2)C(=O)c2ccc(C)cc2)c2cc(OCCCO)ccc2N1C(=O)Cc1ccc(OC)cc1 (stereo partly drawn)	composite z-score	-0.056
COC(=O)[C@@]1(Cc2ccc(OC)cc2)[C@H]2c3cc(C(=O)N4CCCC4)n(Cc4ccc(OC(F)(F)F)cc4)c3C[C@H]2CN1C(=O)c1ccccc1	composite z-score	1.25
COCCCNC(=O)[C@@]1(Sc2ccc(C)cc2)CC(=O)N(Cc2ccccc2Cl)[C@@H]1c1ccc(CO)cc1I	composite z-score	-0.659
O=C(CS)NCCCCCNC(=O)[C@@H]1C[C@@H]2C(=O)N[C@@H](Cc3ccccc3)C(=O)N2[C@@H]1c1cccc(OCCO)c1	composite z-score	1.54
CC(C)CCC[C@@H](C)[C@H]1CC[C@@]2(C)C3=C(CC[C@]12C)[C@@]1(C)CC[C@H](OC(=O)c2ccccc2)C(C)(C)C1CC3 (stereo partly drawn)	composite z-score	0.261
CCOC(=O)C1=CCN(S(=O)(=O)c2ccc(C)cc2)C1c1ccccc1 (stereo not drawn)	composite z-score	0.848
CCCC=C(CCC)[C@@H](NC(=O)CCc1ccccc1)c1ccc(C(F)(F)F)cc1	composite z-score	1.23
CN1C(=O)C2C(C1=O)C1C=C(CCCO)C2C(c2cccs2)N1Cc1cc2c(cc1Br)OCO2 (stereo not drawn)	composite z-score	1.7
COc1ccc(C#Cc2ccc3c(c2)[C@]2(C(=O)N3)[C@H](C(=O)N3CCCCCCC3)[C@H]3C(=O)O[C@H](c4ccccc4)[C@H](c4ccccc4)N3[C@@H]2c2ccc(O)cc2)cc1	composite z-score	1.22
COC(=O)C1=CC(CCCO)=CC(C)N(Cc2cccc(OC(F)(F)F)c2)C=C1C(=O)OC (stereo not drawn)	composite z-score	0.498
C=C/C=C/[C@@H]1C(=C)CN([C@@H](Cc2ccccc2)C(=O)OC)[C@H]1[C@@H](O)Cc1ccccc1	composite z-score	0.325
COC(=O)C(CC#Cc1ccc2c(c1)[C@]1(C(=O)N2)[C@H](c2ccc(OCCO)cc2)N2[C@H](c3ccccc3)[C@H](c3ccccc3)OC(=O)[C@H]2[C@@H]1C(=O)N1CCN(c2ncccn2)CC1)C(=O)OC	composite z-score	1.3
COCCOC(=O)N1C(=O)[C@@]2(c3cc(C#CC4=CCCCC4)ccc31)[C@H](c1ccc(O)cc1)N1[C@H](c3ccccc3)[C@H](c3ccccc3)OC(=O)[C@H]1[C@@H]2C(=O)NC[C@H](O)c1ccccc1	composite z-score	0.791
